Test system: TO-3-N3-2 (biotin conjugate)
Assay: pull-down binding Z-score (relative to library population); higher = stronger binding
Conditions: RNA library: Library-2
Kindly state pull-down binding Z-score for each of the entries shown.
Answers are plain numbers.

polymer-sequence: AUGUCUCAGGUCCCCAGCUGAGUCAA [hsa-mir-6513]
obs-value: 0.129
//
polymer-sequence: GUUGCUGUACCUACAGGUUAUGUUGAUACACCUAAUAAUACAGAUUUUUCCAGAGUUAGUGCUAAACCACCGCCUGGAGAUCAAU [SHAPE_invitro_SARS-CoV-2_Multi_51_ComplexLevel_1]
obs-value: -0.139
//
polymer-sequence: CAUGUAUGUGUAUAUACAUAUAUAUG [hsa-mir-297]
obs-value: -0.125

Report pull-down binding Z-score for every entry below.
1. AUCUCCUUUAGGAAAACCUUCUGUGGGGAGU [hsa-mir-1296]
2. UGAGUACAUUAUUUAUGAUUAAUCA [hsa-mir-376a-1]
3. GCGCUGCCAGAAACUGGCUAGCGC [bulge-U]

[-0.226, -0.0505, -0.328]

Hi! Can you tell me pull-down binding Z-score for each of these sequences?
1. UGGUGGGGGCCGGGGCAGGCCCAGCGAAA [hsa-mir-648]
2. ACCAAAAAUGAUAUGGGU [hsa-mir-7977]
3. CUCGGCCAUCCUCCGUCUGCCCAG [hsa-mir-935]
4. ACCUCCUGGCUUUUCCUCUGCAGCAUGGCUCGGACCUAGUGCAAUGUUUAAGCU [hsa-mir-6826]
5. GAGACUUAGAAAUCCCUAAGUCUC [hsa-mir-3921]
6. UCUUGAAUUUUUGCCAGUUCAAGA [hsa-mir-5197]
7. UGUCAUUACUUUUAACUGUA [hsa-mir-548h-5]
8. GAGUGUAAUUACGUACAUGCAGUAGCUC [hsa-mir-618]

[1.37, 0.11, 0.13, 0.506, -0.246, -0.517, 0.219, 0.182]
